Test system: Erythrocyte
protocol_details: Anticomplement activity in sheep erythrocytes assessed as inhibition of hemolysis by classical pathway after 30 mins of compound treatment in normal human serum with C1q-depleted sera
Format: functional, cell-based
measurement_context: Ovis aries
Active and inactive are the calls of the source. The calls are words filed in the database; no cut-off is given here.
Please answer using one outcome listed in active, inactive

These solved cases illustrate the format of a correct answer.
COC(=O)[C@]12CC[C@@H](C)[C@H](C)[C@H]1C1=CC[C@@H]3[C@@]4(C)CC[C@H](O)C(C)(C)[C@@H]4CC[C@@]3(C)[C@]1(COC(=O)/C=C/c1ccc(O)c(O)c1)CC2 : inactive
C=C1[C@@H](O)[C@H](O)C[C@]2(C)[C@H]3CC=C4[C@@H]5CC(C)(C)CC[C@]5(C(=O)O)CC[C@@]4(C)[C@]3(C)CC[C@@H]12 : active
COC(=O)[C@]12CCC(C)(C)C[C@H]1C1=CC[C@@H]3[C@@]4(C)CC[C@H](O)C(C)(C)[C@@H]4CC[C@@]3(C)[C@]1(COC(=O)/C=C/c1ccc(O)cc1)CC2 : inactive

Recorded call for CC1(C)CC[C@]2(C(=O)O)CC[C@]3(COC(=O)/C=C/c4ccc(O)cc4)C(=CC[C@@H]4[C@@]5(C)CC[C@H](OC(=O)/C=C/c6ccc(O)cc6)C(C)(C)[C@@H]5CC[C@]43C)[C@@H]2C1 ?
active

Assay result, entry COC(=O)[C@]12CCC(C)(C)C[C@H]1C1=CC[C@@H]3[C@@]4(C)CC[C@H](O)C(C)(C)[C@@H]4CC[C@@]3(C)[C@]1(COC(=O)/C=C/c1ccc(O)c(O)c1)CC2 — outcome?
inactive

---

Tested on: Erythrocyte
protocol_details: Anticomplement activity in sheep erythrocytes assessed as concentration required for 50% hemolytic inhibition by classic pathway preincubated for 10 mins with guinea pig serum followed by erythrocyte addition measured after 30 mins by spectrophotometer
Type: functional, Ovis aries
readout_type: Activity (mg/mL)
Give the value, in units of mg/mL, as a plain number.

COC(=O)[C@]12CC[C@@H](C)[C@H](C)[C@H]1C1=CC[C@@H]3[C@@]4(C)CC[C@H](O)C(C)(C)[C@@H]4CC[C@@]3(C)[C@]1(COC(=O)/C=C/c1ccc(O)c(O)c1)CC2 : 0.058
C[C@H]1CC[C@]2(C(=O)O)CC[C@]3(C)C(=CC[C@@H]4[C@@]5(C)CC[C@H](O)C(C)(C)[C@@H]5CC[C@]43C)[C@@H]2[C@]1(C)O : 0.237
COC(=O)[C@]12CCC(C)(C)C[C@H]1C1=CC[C@@H]3[C@@]4(C)CC[C@H](O)C(C)(C)[C@@H]4CC[C@@]3(C)[C@]1(COC(=O)/C=C/c1ccc(O)c(O)c1)CC2 : 0.063
C[C@H]1[C@H](C)CC[C@]2(C(=O)O)CC[C@]3(C)C(=CC[C@@H]4[C@@]5(C)CC[C@H](O)C(C)(C)[C@@H]5CC[C@]43C)[C@H]12 : 0.278

Let's switch to this compound now.
Lookup: Activity / Erythrocyte / C[C@@H]1CC[C@]2(C(=O)O)CC[C@]3(C)C(=CC[C@@H]4[C@@]5(C)CC[C@H](O)C(C)(C)[C@@H]5CC[C@]43C)[C@@H]2[C@]1(C)O
0.101

---

Measured Activity, listed per entry.
System: Erythrocyte
protocol_details: Anticomplement activity in sheep erythrocytes assessed as concentration required for 50% hemolytic inhibition by classic pathway preincubated for 10 mins with guinea pig serum followed by erythrocyte addition measured after 30 mins by spectrophotometer
Type: functional, Ovis aries
Give the number; mg/mL is assumed, so skip it.

Answered cases to consult:
C=C1[C@@H](O)[C@H](O)C[C@]2(C)[C@H]3C=C[C@]45OC(=O)[C@@]6(CC[C@@H](C)[C@H](C)[C@H]64)CC[C@@]5(C)[C@]3(C)CC[C@@H]12 : 0.248
C[C@@H]1CC[C@]2(C(=O)O)CC[C@]3(C)C(=CC[C@@H]4[C@@]5(C)CC[C@H](O)[C@@](C)(CO)[C@@H]5CC[C@]43C)[C@@H]2[C@]1(C)O : 0.19
C=C1[C@@H](O)[C@H](O)C[C@]2(C)[C@H]3[C@@H]4O[C@@H]4[C@]45OC(=O)[C@@]6(CCC(C)(C)C[C@H]64)CC[C@@]5(C)[C@]3(C)CC[C@@H]12 : 0.357
C[C@H]1[C@H](C)CC[C@@]23CC[C@]4(C)[C@@](OC2=O)([C@H]13)[C@H]1O[C@H]1[C@@H]1[C@@]2(C)CC(=O)[C@H](O)[C@@H](C)[C@@H]2[C@H](O)C[C@]14C : 0.592
COC(=O)[C@]12CCC(C)(C)C[C@H]1C1=CC[C@@H]3[C@@]4(C)CC[C@H](O)C(C)(C)[C@@H]4CC[C@@]3(C)[C@]1(COC(=O)/C=C/c1ccc(O)cc1)CC2 : 0.094

Quick one: Activity for C[C@H]1[C@H](C)CC[C@]2(C(=O)O)CC[C@]3(C)C(=CC[C@@H]4[C@@]5(C)C[C@H](O)[C@H](O)[C@@](C)(CO)[C@@H]5CC[C@]43C)[C@H]12 ?
0.197

---

Tested on: Erythrocyte
protocol_details: Anticomplement activity in sheep erythrocytes assessed as concentration required for 50% hemolytic inhibition by classic pathway preincubated for 10 mins with guinea pig serum followed by erythrocyte addition measured after 30 mins by spectrophotometer
Format: functional
measurement_context: Ovis aries
The source made the active and inactive calls. The rule behind the calls is not given here.
readout_type: Activity

C[C@H]1CC[C@]2(C(=O)O[C@@H]3O[C@H](CO)[C@@H](O)[C@H](O)[C@H]3O)CC[C@]3(C)C(=CC[C@@H]4[C@@]5(C)CC[C@H](O[C@@H]6OC[C@@H](O)[C@H](O)[C@H]6O)C(C)(C)[C@@H]5CC[C@]43C)[C@@H]2[C@]1(C)O : inactive
COC(=O)[C@H]1O[C@@H](O[C@H]2CC[C@]3(C)[C@H]4CC=C5[C@H]6[C@](C(=O)O)(CC[C@@H](C)[C@@]6(C)O)CC[C@@]5(C)[C@]4(C)CC[C@H]3C2(C)C)[C@H](O)[C@@H](O)[C@@H]1O : inactive
COC(=O)[C@H]1O[C@@H](O[C@H]2CC[C@]3(C)[C@H]4CC=C5[C@@H]6[C@H](O)C(C)(C)CC[C@]6(C(=O)O)CC[C@@]5(C)[C@]4(C)CC[C@H]3C2(C)C)[C@H](O)[C@@H](O)[C@@H]1O : inactive
COC(=O)[C@H]1O[C@@H](O[C@H]2CC[C@]3(C)[C@H]4CC=C5[C@H]6[C@](C(=O)O)(CC[C@H](C)[C@@]6(C)O)CC[C@@]5(C)[C@]4(C)CC[C@H]3C2(C)C)[C@H](O)[C@@H](O)[C@@H]1O : inactive

---

System: Erythrocyte
protocol_details: Anticomplement activity in New Zealand White rabbit erythrocytes assessed as concentration required for 50% hemolytic inhibition by alternative pathway preincubated for 10 mins with normal human serum followed by erythrocyte addition measured after 30 mins by spectrophotometer
Format: functional, Oryctolagus cuniculus
Documented Activity across a set of molecules
Respond numerically; units are mg/mL and should not be typed.

Example cases with answers are listed next.
COC(=O)[C@]12CC[C@@H](C)[C@@](C)(O)[C@H]1C1=CC[C@@H]3[C@@]4(C)CC[C@H](O)C(C)(C)[C@@H]4CC[C@@]3(C)[C@]1(COC(=O)/C=C/c1ccc(O)c(OC)c1)CC2 : 0.319
C[C@@H]1CC[C@]2(C(=O)O)CC[C@]3(C)C(=CC[C@@H]4[C@@]5(C)CC[C@H](O)[C@@](C)(CO)[C@@H]5CC[C@]43C)[C@@H]2[C@]1(C)O : 0.341
C=C1[C@@H](O)[C@H](O)C[C@]2(C)[C@H]3CC=C4[C@@H]5[C@@H](C)[C@H](C)CC[C@]5(C(=O)O)CC[C@@]4(C)[C@]3(C)CC[C@@H]12 : 0.586

Return reported Activity; argument: CC1=C2[C@H](O)C[C@]3(C)[C@H]([C@@H]4O[C@@H]4[C@]45OC(=O)[C@@]6(CC[C@@H](C)[C@H](C)[C@H]64)CC[C@]53C)[C@@]2(C)C=C(O)C1=O
0.774

For the molecule shown here, C[C@@H]1CC[C@]2(C(=O)O)CC[C@]3(C)C(=CC[C@@H]4[C@@]5(C)CC[C@H](O)C(C)(C)[C@@H]5CC[C@]43C)[C@@H]2[C@]1(C)O , give the reported Activity.
0.157

Query (molecule): CC1=C2[C@H](O)C[C@]3(C)[C@H]([C@@H]4O[C@@H]4[C@]45OC(=O)[C@@]6(CCC(C)(C)C[C@H]64)CC[C@]53C)[C@@]2(C)C=C(O)C1=O ; field requested: Activity
0.944

Give the measured Activity of COC(=O)[C@]12CC[C@@H](C)[C@H](C)[C@H]1C1=CC[C@@H]3[C@@]4(C)CC[C@H](O)C(C)(C)[C@@H]4CC[C@@]3(C)[C@]1(COC(=O)/C=C/c1ccc(O)c(O)c1)CC2 .
0.08

What does the data say about its Activity? Entry: C=C1[C@@H](O)[C@H](O)C[C@]2(C)[C@H]3C=C[C@]45OC(=O)[C@@]6(CC[C@@H](C)[C@H](C)[C@H]64)CC[C@@]5(C)[C@]3(C)CC[C@@H]12
0.658

Which Activity is listed for C[C@H]1[C@H](C)CC[C@]2(C(=O)O)CC[C@]3(C)C(=CC[C@@H]4[C@@]5(C)CC[C@H](O)[C@@](C)(CO)[C@@H]5CC[C@]43C)[C@H]12 ?
0.678

Looking for the measured Activity of C[C@H]1[C@H](C)CC[C@]2(C(=O)O)CC[C@]3(C)C(=CC[C@@H]4[C@@]5(C)C[C@H](O)[C@H](O)[C@@](C)(CO)[C@@H]5CC[C@]43C)[C@H]12 , can you help?
0.212
